All values here come from ChEMBL document CHEMBL1135191.

Here's a batch of compounds along with measured Ki for Human immunodeficiency virus type 1 protease (Human immunodeficiency virus 1).
assayMetric: Ki (nM)

O=C(NC(Cc1ccccc1)C(O)CN1CCCCCCCCC/C=C/CCOC1=O)O[C@H]1CO[C@H]2OCC[C@H]21 (stereo not given in full) :: 88
O=C(NC(Cc1ccccc1)C(O)CN1CCCCCCCCCCCOC1=O)O[C@H]1CO[C@H]2OCC[C@H]21 (stereo not given in full) :: 80

[A] CC1C/C=C\CCCCCCCCCOC(=O)N1CC(O)C(Cc1ccccc1)NC(=O)O[C@H]1CO[C@H]2OCC[C@H]21 (stereo not given in full)
[B] CC(C)(C)NC(=O)[C@@H]1C[C@@H]2CCCC[C@@H]2CN1CC(O)C(Cc1ccccc1)NC(=O)O[C@H]1CO[C@H]2OCC[C@H]21 (stereo not given in full)
Which record would sort first by descending Ki, A or B ? Please identify the chosen entry by its label.
A
